Target: indoleamine 2,3-dioxygenase (IDO) (Homo sapiens, UniProt P14902)
Sequence (P14902 whole entry): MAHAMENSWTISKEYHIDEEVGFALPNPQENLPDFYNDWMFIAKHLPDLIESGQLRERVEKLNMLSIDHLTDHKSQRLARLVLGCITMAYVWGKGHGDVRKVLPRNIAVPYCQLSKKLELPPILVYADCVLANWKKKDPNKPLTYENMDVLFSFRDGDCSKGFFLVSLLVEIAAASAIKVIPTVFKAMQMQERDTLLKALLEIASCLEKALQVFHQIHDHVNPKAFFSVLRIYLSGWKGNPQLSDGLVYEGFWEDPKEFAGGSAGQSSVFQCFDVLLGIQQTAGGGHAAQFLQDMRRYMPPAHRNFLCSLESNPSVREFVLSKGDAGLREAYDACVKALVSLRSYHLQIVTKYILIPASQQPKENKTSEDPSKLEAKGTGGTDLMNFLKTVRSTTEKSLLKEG
Test: HeLa cell-based indoleamine 2,3-dioxygenase (IDO) assay (IFNγ-induced kynurenine production)
Conditions: Tables 3-7; compounds shown only as drawings; read-out: Potency (IDO IC50)
pIC50: −log10 of the molar value.
measureName: pIC50

>>> print(df.to_string())
                                  molsmiles  valuemeasured
0     O=C(Nc1ccc(Cl)cc1)N1CCC(Oc2ccccc2)CC1         > 5.70
1  O=C(Nc1ccc(F)cc1)[C@H]1CC[C@@H](Cc2ccccc2)CC1         > 5.70
2  O=C(Nc1cccc(Cl)c1)N[C@H]1CC[C@@H](c2ccccc2)CC1         > 6.60
3  O=C(Nc1ccc(Cl)cc1)[C@H]1CC[C@H](Cc2ccccc2)CC1         > 5.70
4      O=C(c1ccc(Cl)cc1)N1CCC(Cc2ccccc2)CC1         > 5.70
5  O=C(Cc1cccc(Cl)c1)N[C@H]1CC[C@H](c2ccccc2)CC1         > 7.30
6  O=C(NC[C@H]1CC[C@@H](c2ccccc2)CC1)c1ccc(F)cc1         > 7.30
